target: PKC theta kinase (Homo sapiens, UniProt Q04759)
Sequence (Q04759 whole entry): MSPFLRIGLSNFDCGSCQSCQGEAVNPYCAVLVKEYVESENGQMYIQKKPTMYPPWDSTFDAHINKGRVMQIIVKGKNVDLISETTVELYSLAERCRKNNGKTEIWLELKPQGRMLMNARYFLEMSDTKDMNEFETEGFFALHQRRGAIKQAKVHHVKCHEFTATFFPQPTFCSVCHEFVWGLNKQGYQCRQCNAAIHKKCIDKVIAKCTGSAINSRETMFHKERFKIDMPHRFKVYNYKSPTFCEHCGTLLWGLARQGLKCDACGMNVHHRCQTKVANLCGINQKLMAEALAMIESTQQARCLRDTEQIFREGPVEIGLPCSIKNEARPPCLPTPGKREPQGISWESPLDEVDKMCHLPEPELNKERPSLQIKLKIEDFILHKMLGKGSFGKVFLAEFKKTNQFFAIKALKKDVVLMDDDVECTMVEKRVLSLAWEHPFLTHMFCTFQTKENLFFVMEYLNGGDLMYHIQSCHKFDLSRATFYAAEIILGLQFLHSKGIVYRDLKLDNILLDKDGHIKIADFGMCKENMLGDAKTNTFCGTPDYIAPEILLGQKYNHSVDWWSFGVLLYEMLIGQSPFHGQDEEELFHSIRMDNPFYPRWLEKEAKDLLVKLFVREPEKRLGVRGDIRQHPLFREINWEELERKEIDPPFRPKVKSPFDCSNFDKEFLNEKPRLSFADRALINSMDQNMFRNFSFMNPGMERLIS
pKi: −log10 of the molar value.
experimental.endpoint: pKi

Fill in: pKi of c1cc(-c2n[nH]c3nccnc23)nc(N2CCNCC2)c1 is ___
> 5.55

====

Target: PKC delta kinase (Homo sapiens)
Sequence (Q05655 whole entry): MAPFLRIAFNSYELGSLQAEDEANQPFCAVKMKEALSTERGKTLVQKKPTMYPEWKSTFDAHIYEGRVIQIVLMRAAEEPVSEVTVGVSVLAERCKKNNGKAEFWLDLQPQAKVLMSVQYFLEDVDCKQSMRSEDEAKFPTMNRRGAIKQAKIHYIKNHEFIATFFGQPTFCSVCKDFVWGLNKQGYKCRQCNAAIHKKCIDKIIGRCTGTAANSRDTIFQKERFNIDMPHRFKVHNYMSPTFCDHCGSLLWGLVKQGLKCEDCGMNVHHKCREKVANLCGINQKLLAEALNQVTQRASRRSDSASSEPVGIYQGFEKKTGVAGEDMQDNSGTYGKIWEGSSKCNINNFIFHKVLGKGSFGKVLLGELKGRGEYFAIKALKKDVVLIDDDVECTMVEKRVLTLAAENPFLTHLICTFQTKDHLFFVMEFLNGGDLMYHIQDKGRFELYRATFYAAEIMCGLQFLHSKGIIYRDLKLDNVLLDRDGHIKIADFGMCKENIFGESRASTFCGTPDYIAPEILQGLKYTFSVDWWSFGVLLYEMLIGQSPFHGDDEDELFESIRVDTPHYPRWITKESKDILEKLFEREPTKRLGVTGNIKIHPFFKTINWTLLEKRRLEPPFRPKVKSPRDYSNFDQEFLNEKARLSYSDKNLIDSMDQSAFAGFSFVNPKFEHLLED
Assay: PKC delta kinase coupled-enzyme (NADH consumption) inhibition assay
Type: biochemical
Conditions: 150 μM ATP, 46 nM PKC delta, 30° C.
Experimental: An assay buffer solution was prepared which consisted of 100 mM HEPES (pH 7.5), 10 mM MgCl2, 25 mM NaCl, 0.1 mM EDTA and 0.01% Brij. […] Initial rate data was determined from the rate of change of absorbance at 340 nm (corresponding to stoichiometric consumption of NADH) using a Molecular Devices Spectramax plate reader (Sunnyvale, Calif.) over 15 mins at 30° C. […]
pKi: −log10 of the molar value.
experimental.endpoint: pKi

Query for PKC delta kinase (Homo sapiens): what pKi does the record show for c1cc(-c2n[nH]c3nccnc23)nc(N2CCNCC2)c1 ?
< 5.90
